The entries below are paired with their reported IC50.
TESTED SYSTEM: T1, GRF receptor of rat adenopituitary (rat, UniProt Q02644-2)
T1 sequence: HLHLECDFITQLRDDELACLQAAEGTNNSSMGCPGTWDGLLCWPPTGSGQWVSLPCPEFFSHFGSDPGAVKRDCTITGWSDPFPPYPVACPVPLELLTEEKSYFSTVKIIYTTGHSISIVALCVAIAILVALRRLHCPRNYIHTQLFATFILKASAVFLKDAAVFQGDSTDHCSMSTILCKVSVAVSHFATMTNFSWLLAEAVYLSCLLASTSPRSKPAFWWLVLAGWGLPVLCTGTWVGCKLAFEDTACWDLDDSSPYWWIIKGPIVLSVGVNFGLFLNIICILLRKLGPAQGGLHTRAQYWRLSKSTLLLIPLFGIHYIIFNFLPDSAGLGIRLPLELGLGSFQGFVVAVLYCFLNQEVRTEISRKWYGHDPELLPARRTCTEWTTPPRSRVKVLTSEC
EXPERIMENTAL PROTOCOL: displacement of 125I-Tyr10 hGRF(1-44)NH2 from rat anterior pituitary homogenate
* marks the point of attachment. FITC = O=C1OC2(c3ccc(O)cc3Oc3cc(O)ccc32)c2ccc(NC(=S)*)cc21

| BINDER | IC50 |
| --- | --- |
| {FITC}-YADAIFTNSYRKVLGQLSARKLLQDIMSRQQGESNQERGARARL-NH2 [Nα-fluorescein-5-thiocarbamyl!hGRF(1-44)NH2] | 14 nM |
| {FITC}-YADAIFTNSYRKVLGQLSARKLLQDIMSR-NH2 [Nα-fluorescein-5-thiocarbamyl!hGRF(1-29)NH2] | 14 nM |
